B1: ZNF649 (parent)
chain: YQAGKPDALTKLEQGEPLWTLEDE

# Variants of: B1
# Measurement notes: protein stability index of a GFP-peptide fusion (GPS, HEK-293T) (PSI 1-6); higher = more stable;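 also: lentivirally expressed fusions sorted by FACS into six bins by GFP to DsRed ratio, PSI derived from sequencing read proportions per bin multiplied by bin number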
# Condition parameters: c terminus: a fixed tail appended
Measurement label: protein stability index
API note: the answer field is a bare number with no unit suffix.

Here's what some known entries look like.
Q. Data request, read-out protein stability index, for G4E
A. 4.38

Q. Data request, read-out protein stability index, for K5D
A. 4.01

Q. Data request, read-out protein stability index, for Y1K
A. 5.51

Pending variant:
Q. Data request, read-out protein stability index, for L21N
A. 4.39
